system: Jurkat Clone E6-1 cells; assay: In vitro cell viability assay (CellTiter-Glo, 6 days); type: cell-based; details: Homo sapiens, free antifolate drugs, Table 1d
observation.type: IC50 (nM)
Output spec: scalar in nM, unitless text.

Query string: Annotate the molecule Nc1ccc(C(=O)NCCC[C@H](NC(=O)c2ccc(CCc3cnc4nc(N)nc(N)c4n3)cc2O)C(=O)O)c(-c2nnn[nH]2)c1 [XT162] with its measured IC50.
Result string: 0.78

---

Entries and their IC50 values follow.
test system: BT-474 cells; assay: In vitro cell viability assay (CellTiter-Glo, 6 days); type: cell-based; conditions: Homo sapiens, free antifolate drugs, Table 1a, # no full dose-response curve
Report only the number, with the unit nM understood.

Query string: Quote IC50 reported for Nc1ccc(C(=O)NCCC[C@H](NC(=O)c2ccc(NCc3cnc4nc(N)nc(N)c4n3)cc2)C(=O)O)c(-c2nn[nH]n2)c1 [XX35] please.
Result string: 4.3

Continuing:
Query string: In one line, give reported IC50 of the entry Nc1ccc(C(=O)NCCC[C@H](NC(=O)c2ccc(NCc3cnc4nc(N)nc(N)c4n3)cc2)C(=O)O)c(S(=O)(=O)O)c1 [XX37] .
Result string: 7.5

Query string: For Nc1ccc(C(=O)NCCC[C@H](NC(=O)c2ccc(CCc3ccc4nc(N)nc(N)c4c3)cc2)C(=O)O)cc1 [XJ4] , write its IC50.
Result string: 8.1
